# measured.on: T1, human ROR1 on the surface of tumor cells (human, UniProt Q01973 30-937)
# T1 construct: whole, on cells; also called ROR1 on the cell surface; tumor cell ROR1
# assay.overview: FACS, MDA-MB-231 cells
property.measured: binding result

binder | result
Hu005-42 (antibody, V domains shown, Humanized) VH: EVQLVESGGGLVKPGGSLRLSCAASGFTFNSYAMSWVRQTPEKRLEWVATISDAGSYTYYPDNEKGRFTISRDNAKNSLYLQMNSLRAEDTAIYYCVRGGYYYNLYAMDYWGQGTLVTVSS VL: DIVLTQSPDSLAVSLGERATINCKASQSVSFPGTSLMHWYQQKPGQQPKLLIYRASNLEAGVPDRFSGSGSRTDFTLTISSLQAEDVAVYYCQQSREYPWTFGGGTKVEIK | binds
Hu001-3-MMAE (antibody, human IgG1, DAR about 4.15, V domains shown, vcMMAE on cysteines after TCEP reduction, positions not given, Antibody-drug conjugate of Hu001-3 (human IgG1, Kappa) with vcMMAE) VH: QVQLVQSGAEVKKPGASVKVSCKASGYTFTDYNLHWVRQAPGQGLEWMGYINPNHDATSYNQKFQGRVTMTRDTSTSTVYMELSSLRSEDTAVYYCARRVRTGTGLDDWGQGTTVTVSS VL: DVVMTQSPLSLPVTLGQPASISCRSSHNIVHTNANTYLEWYQQRPGQSPKLLIYKVSNRFSGVPDRFSGSGSGTDFTLKISRVEAEDVGVYYCFQGSRFPYTFGGGTKVEIK | binds
Hu001-2-MMAE (antibody, human IgG1, DAR about 4.15, V domains shown, vcMMAE on cysteines after TCEP reduction, positions not given, Antibody-drug conjugate of Hu001-2 (human IgG1, Kappa) with vcMMAE) VH: QVQLVQSGAEVKKPGASVKVSCKASGYTFTDYNLHWVRQAPGQGLEWMGYINPNHDATSYNQKFQGRVTMTRDTSTSTVYMELSSLRSEDTAVYYCARRVRTGTGLDDWGQGTTVTVSS VL: DVVMTQSPLSLPVTLGQPASISCRSSHNIVHTNANTYLEWYQQRPGQSPRLLIYKVSNRFSGVPDRFSGSGSGTDFTLKISRVEAEDVGVYYCFQGSRFPYTFGGGTKVEIK | binds
